The following compounds are shown together with reported PAMPA-BBB Pe values.
# assay-conditions: PAMPA

compound="COC(=O)[C@H]1[C@H]2C[C@@H]3c4[nH]c5cc(OC)ccc5c4CCN3C[C@H]2C[C@@H](OC(=O)c2cc(OC)c(OC)c(OC)c2)[C@@H]1OC [Reserpine, reference compound]" test_readout="PAMPA-BBB Pe" recorded_value="90 10^-6 cm/sec"

Now for a further compound.
**Q:** Please look up its PAMPA-BBB Pe: Cc1nccc2c1[nH]c1ccccc12 [Harmane]
**A:** 59.65 10 × 10^− 6 cm/sec

---

# test-protocol: in vitro
# assay-conditions: PAMPA, PAMPA-BBB Pe
// NB: equality with 60 ×10⁻⁶ cm/s counts as Criterion not met; only Papp strictly below is Criterion met

**Q:** Threshold test, Papp < 60 ×10⁻⁶ cm/s: CC[C@]1(O)C[C@H]2CN(CCc3c([nH]c4ccccc34)[C@@](C(=O)OC)(c3cc4c(cc3OC)N(C)[C@H]3[C@@](O)(C(=O)OC)[C@H](OC(C)=O)[C@]5(CC)C=CCN6CC[C@]43[C@@H]65)C2)C1 [V[…]]
**A:** Criterion met

**Q:** is_below(Papp, 60 ×10⁻⁶ cm/s) for O=C1C[C@@H]2OCC=C3CN4CC[C@]56c7ccccc7N1[C@H]5[C@H]2[C@H]3C[C@H]46 [[…]] ?
**A:** Criterion met

**Q:** # check: Papp < 60 ×10⁻⁶ cm/s for COc1cc2c(c3oc4cccc(O)c4c(=O)c13)[C@@H]1C=CO[C@@H]1O2
**A:** Criterion not met

**Q:** Does this compound meet the criterion Papp < 60 ×10⁻⁶ cm/s? COC(=O)[C@@H]1[C@@H]2C[C@H]3c4[nH]c5ccccc5c4CCN3C[C@@H]2CC[C@@H]1O
**A:** Criterion met

**Q:** # TODO verify Papp < 60 ×10⁻⁶ cm/s strictly for this compound: CC[C@H](C)C(=O)O[C@H]1CCC=C2C=C[C@H](C)[C@H](CC[C@@H]3C[C@@H](O)CC(=O)O3)[C@H]21
**A:** Criterion met

**Q:** Field: below-cutoff. Rule: recorded Papp strictly less than 60 ×10⁻⁶ cm/s. Subject: COC(=O)[C@H]1[C@H]2C[C@@H]3c4[nH]c5cc(OC)ccc5c4CCN3C[C@H]2C[C@@H](OC(=O)c2cc(OC)c(OC)c(OC)c2)[C@@H]1OC [Reserpine, reference compound]
**A:** Criterion not met
